Test system: HCT-15 colon
Assay: NCI-60 one-dose screen, 48 h (100 = growth as untreated, 0 = no growth, -100 = all killed)
Conditions: 10 µM unless noted
This is part of a sample that, as a whole, favours compounds with a hit. Of some 83,000 tested, about 20% had one in any assay.
Listed molecules paired with reported growth
Quick note: give the figure in %, leave out the unit.

Guide cases for growth, answers given:
| Molecule | Measure | Units symbol | Observed measurement |
| --- | --- | --- | --- |
| C=C(C)[C@@H]1CC[C@]2(C(N)=O)CC[C@]3(C)[C@H](CC[C@@H]4[C@@]5(C)CCCNC(C)(C)[C@@H]5CC[C@]43C)[C@@H]12 | growth | % | 50.2 |
| Nc1c(C(=O)Nc2ccccc2)sc2nc3c(cc12)CN(C(=O)OCc1ccccc1)CC3 | growth | % | 37.3 |
| NCCN1CCNCC1 | growth | % | 100 |

// molecule Cc1cccc(C)c1Nc1nnc(-c2ccc(F)cc2)o1 , assay HCT-15 colon, growth value: 110

// molecule C=C(C)[C@@H]1CC[C@]2(C(=O)O)CC[C@]3(C)[C@H](CC[C@@H]4[C@@]5(C)C[C@@H](CC#Cc6ccccc6)C(=O)C(C)(C)[C@@H]5CC[C@]43C)[C@@H]12 , assay HCT-15 colon, growth value: 18.8

// molecule CSc1nc(-c2cccs2)c2c(N)[nH]nc2n1 , assay HCT-15 colon, growth value: 99.6

// molecule CC[C@]12C=CCN3CC[C@@]4(c5cc(NC(=O)CCC(=O)O[C@H]6CC[C@H]7[C@@H]8CC[C@H]9CC(=O)CC[C@]9(C)[C@H]8CC[C@]67C)c(OC)cc5N(C)[C@H]4[C@@](O)(C(=O)OC)[C@@H]1OC(C)=O)[C@@H]32 , assay HCT-15 colon, growth value: 58.2

// molecule Cc1nc(C)c(C)nc1C , assay HCT-15 colon, growth value: 109

// molecule O=c1nc(-c2ccccc2)c2cc(-c3ccc(N4CCCC4)nc3)ccc2[nH]1 , assay HCT-15 colon, growth value: 44

// molecule Cc1cccc(C)c1NC(=O)CN(CC(C)C)CC(O)COc1ccccc1 (stereo not drawn) , assay HCT-15 colon, growth value: 90.7

// molecule COc1c(O)cc2oc3cc(O[C@@H]4OC(C)[C@@H](O)[C@H](O)C4O)c(CC=C(C)C)c(O)c3c(=O)c2c1CC=C(C)C (stereo partly drawn) , assay HCT-15 colon, growth value: 85.1

====

Tested on: SF-295 CNS
Test: NCI-60 one-dose screen, 48 h (100 = growth as untreated, 0 = no growth, -100 = all killed)
Conditions: 10 µM unless noted
Compounds without any hit were thinned out: in the full panel of roughly 83,000, 20% have a hit.
Measure: growth (%)
Quick note: give the figure in %, leave out the unit.

Guide cases for growth, answers given:
| Molecule | growth [%] |
| --- | --- |
| Cn1c2ccccc2c2c(OC(=O)c3ccccc3)c3c(nc21)-c1ccccc1C3 | 100 |
| C=C1C(=O)O[C@H]2[C@H]1CC/C(COC(=O)c1c[nH]c3ccccc13)=C\CC[C@@]1(C)O[C@@H]21 | 50.2 |
| COc1cc2c(cc1OC)C(Sc1ccc(Cl)cc1)c1c(nc(N)c(C#N)c1N)O2 (stereo not drawn) | 43.8 |
| Cc1nccc2c3ccc(OCc4cn(-c5ccc(Cl)cc5)nn4)cc3n(CC(C)C)c12 | 15.4 |
| CC(C)(C)c1nc2c(s1)c1nc(N)ncc1c1ccc(NS(=O)(=O)c3c(F)cccc3F)c(F)c12 | 60.7 |
| O=C(CCl)N1CCCc2ccccc21 | 95.7 |
| COC(=O)/C=C/c1cc(OC)c2c(c1)[C@@H](C(=O)OC)[C@H](c1ccc(OC)c(OC)c1)O2 | 18.4 |

Okay, now this molecule:
Kindly note the recorded growth for CN(C)C1=NCCN1 , which is 101

====

System: IGROV1 ovarian
Test: NCI-60 one-dose screen, 48 h (100 = growth as untreated, 0 = no growth, -100 = all killed)
Conditions: 10 µM unless noted
This is part of a sample that, as a whole, favours compounds with a hit. Of some 83,000 tested, about 20% had one in any assay. The source made the active and inactive calls. The calls were made as follows: active = growth percent below 10; inactive = the rest.
Listed compounds paired with reported growth

Guide cases for growth, answers given:
| Structure notation | growth |
| --- | --- |
| N#Cc1ccc(N2Cc3cc(Cl)ccc3OC3=C2C(=O)N(Cc2ccccc2)C3=O)cc1 | 13% (inactive) |
| C/C(=N\NC(=O)c1ccncc1)c1ccc(N)cc1 | 97.4% (inactive) |

Kindly note the recorded growth for CC(=O)c1cnc(-c2ccccc2)nc1CBr , which is 89.2% (inactive)

====

Tested on: OVCAR-5 ovarian
Experiment: NCI-60 one-dose screen, 48 h (100 = growth as untreated, 0 = no growth, -100 = all killed)
Settings: 10 µM unless noted
The panel holds about 83,000 compounds, 20% with a hit somewhere; the sample as a whole holds those more often.
# binarize growth: threshold 90% inclusive, high side T, low side F

| Compound | Assigned label |
| --- | --- |
| CCCCCCCCCCCCCC1=NCC[N+]1(CCO)Cc1ccccc1 (stereo not given) | F |

Would you kindly look at the next entry?
Quick check: does CCc1ccc(OCc2ccccc2C(=O)Nc2ccc3nc(C)cc(N)c3c2)cc1 have growth greater than or equal to 90%? F

====

Listed molecules paired with reported growth
System: HCC-2998 colon
Test: NCI-60 one-dose screen, 48 h (100 = growth as untreated, 0 = no growth, -100 = all killed)
Conditions: 10 µM unless noted
Compounds without any hit were thinned out: in the full panel of roughly 83,000, 20% have a hit.
Quick note: give the figure in %, leave out the unit.

| Molecule | Units symbol | Observed measurement |
| --- | --- | --- |
| O=C(CCl)N1CCCc2ccccc21 | % | 96.6 |
| CN1CC=C(c2cc(NC(=O)Nc3ccc(Oc4ccnc(NC(=O)C5CC5)c4)c(F)c3)cc(C(F)(F)F)c2)CC1 | % | 11.8 |
| CCO/C=N/S(=O)(=O)c1cc2c(cc1Cl)NC=NS2(=O)=O | % | 102 |
| COc1cccc(NC(=O)Nc2ccc(Nc3ncnc4[nH]c(C)c(C)c34)cc2)c1 | % | 115 |

Kindly note the recorded growth for COc1cc(C2=NN(c3ccccc3)C(c3cccc(Nc4ccnc5cc(C(F)(F)F)ccc45)c3)C2)cc(OC)c1OC (centres undefined) , which is 90

Kindly note the recorded growth for Cc1ccccc1NC(=O)c1sc2nc(C)c(C(C)O)cc2c1N (centres undefined) , which is 67.9

Kindly note the recorded growth for O=C1C(Cl)=C(Nc2ccc3c(c2NC2=C(Cl)C(=O)c4ccccc4C2=O)C(=O)c2ccccc2C3=O)C(=O)c2ccccc21 , which is 67

Kindly note the recorded growth for CCOC(=O)c1c(C)nc2c(c1N)/C(=C/c1cccs1)C(=O)N2c1ccc(OC)cc1 , which is 80.7

Kindly note the recorded growth for Cc1cnc(SCc2ccc(Cl)cc2)[nH]c1=S , which is 108

Kindly note the recorded growth for Oc1c(CCl)cc(Cl)cc1Cc1cc(Cl)cc(Cc2cc(Cl)cc(CCl)c2O)c1O , which is 19.5

====

Tested on: A498 renal
Experiment: NCI-60 one-dose screen, 48 h
Details: 10 µM unless noted
About 83,000 compounds went through this panel and 20% of them were active in at least one assay; those are over-represented in the sample as a whole. Calls of active or inactive are those of the source. The calls were made as follows: active = growth percent below 10; inactive = the rest.
A correct response names exactly one class from 1 (active), 0 (inactive)

| Compound | Assigned label |
| --- | --- |
| O=C1NN(c2ccccc2)C(c2ccc3c(c2)OCO3)N2CCC[C@@H]12 (stereo partly specified) | 0 |

GET /call?item= CSc1nc(-c2ccco2)c2c(N)[nH]nc2n1 returns the recorded outcome of this test. 0

GET /call?item= CSc1nc(-c2cccs2)c2c(N)[nH]nc2n1 returns the recorded outcome of this test. 0

====

Listed compounds paired with reported growth
Tested on: SNB-75 CNS
Experiment: NCI-60 one-dose screen, 48 h (100 = growth as untreated, 0 = no growth, -100 = all killed)
Settings: 10 µM unless noted
About 83,000 compounds went through this panel and 20% of them were active in at least one assay; those are over-represented in the sample as a whole. The source made the active and inactive calls. The calls were made as follows: active = growth percent below 10; inactive = the rest.

Guide cases for growth, answers given:
| Compound | Observed measurement |
| --- | --- |
| COc1cc(C2=NN(C(C)=O)C(c3cccc(Nc4ccnc5cc(C(F)(F)F)ccc45)c3)C2)cc(OC)c1OC (centres undefined) | 76.1% (inactive) |
| CC1(c2ccccc2Cl)NC(=O)NC1=O (centres undefined) | 88.1% (inactive) |
| C=C(C)[C@@H]1CCC=C2CC[C@]3(C)[C@H](CC[C@@H]4[C@@]5(C)CCCNC(C)(C)[C@@H]5CC[C@]43C)[C@H]21 | 100% (inactive) |

Okay, now this compound:
Kindly note the recorded growth for O=C1C(=O)c2c(nc3ccc(Br)cn23)-c2ccccc21 , which is -95.3% (active)
